For each of the compounds below, state its half-life at 0.5 µM.
MEASUREMENT_DESCRIPTION: Intrinsic clearance (CLint) assay, mouse liver microsomes
Type: in vitro ADME
CONDITION_CONTEXT: mouse, pooled mouse liver microsomes, pH 7.4; read-out: Microsomal t1/2 Mouse
Non-standard residues stand in square brackets, D forms with d. Residues, ends and D or L forms follow the SMILES beside them. dOrn = NCCC[C@@H](N)C(=O)O
One number for each entry, in h.

CC[C@H](C)[C@@H]1NC(=O)[C@@H](CC(C)C)NC(=O)[C@H](CC(C)C)NC(=O)[C@H](Cc2c[nH]c3ccccc23)NC(=O)[C@@H](CCCNC(=N)N)NC(=O)[C@H](CC(N)=O)NC1=O [Compound 13c] (cyclo(IN[dR]WL[dL])) ... 1.05

Then there is this compound:
Q. Fill in: half-life at 0.5 µM of COc1ccc(C[C@@H]2NC(=O)[C@@H](CCCN)NC(=O)[C@H](CC(N)=O)NC(=O)[C@H](C(C)C)NC(=O)[C@@H](CC(C)C)NC(=O)[C@H](CC(C)C)NC2=O)cc1 [Compound 15c] (cyclo(L[dL]VN[dOrn]Y(Me))) is ___
A. 1.43

---

MEASUREMENT_DESCRIPTION: Plasma stability assay, mouse plasma
Format: in vitro ADME
CONDITION_CONTEXT: CD1, mouse, plasma; 2 hours at 37°C, triplicates; read-out: Plasma stability (% remaining) Mouse
Non-standard residues stand in square brackets, D forms with d. Residues, ends and D or L forms follow the SMILES beside them. dOrn = NCCC[C@@H](N)C(=O)O
For each of the compounds below, state its remaining at 2 h, 1 uM.
Kindly write the number and append the unit.

CC(C)C[C@@H]1NC(=O)[C@H](Cc2c[nH]c3ccccc23)NC(=O)[C@@H](CCCN)NC(=O)[C@H](C)NC(=O)[C@H](C(C)C)NC(=O)[C@@H](CC(C)C)NC1=O [Compound 4c] (cyclo(A[dOrn]WL[dL]V)) ... 100%
CC(C)C[C@@H]1NC(=O)[C@H](Cc2c[nH]c3ccccc23)NC(=O)[C@@H](CCCN)NC(=O)[C@H](CC(N)=O)NC(=O)[C@H](C(C)C)NC(=O)[C@@H](C)NC1=O [Compound 6c] (cyclo(L[dA]VN[dOrn]W)) ... 102%
CC[C@H](C)[C@@H]1NC(=O)[C@@H](CC(C)C)NC(=O)[C@H](CC(C)C)NC(=O)[C@H](Cc2c[nH]c3ccccc23)NC(=O)[C@@H](CCCN)NC(=O)[C@H](CC(N)=O)NC1=O [Compound 7c] (cyclo(IN[dOrn]WL[dL])) ... 98%

Then there is this compound:
Q. Fill in: remaining at 2 h, 1 uM of CC(C)C[C@H]1NC(=O)[C@H](C)NC(=O)[C@H](Cc2c[nH]c3ccccc23)NC(=O)[C@@H](CCCN)NC(=O)[C@H](CC(N)=O)NC(=O)[C@H](C(C)C)NC1=O [Compound 2c] (cyclo(A[dL]VN[dOrn]W)) is ___
A. 93%

---

MEASUREMENT_DESCRIPTION: Intrinsic clearance (CLint) assay, human liver microsomes
Format: in vitro ADME
CONDITION_CONTEXT: human liver microsomes
Non-standard residues stand in square brackets, D forms with d. Residues, ends and D or L forms follow the SMILES beside them. *: point of attachment. dPhe(4-Cl) = N[C@H](Cc1ccc(Cl)cc1)C(=O)O; NMeL = CN[C@@H](CC(C)C)C(=O)O; NMeV = CN[C@H](C(=O)O)C(C)C; dOrn = NCCC[C@@H](N)C(=O)O; tBu = CC(C)(C)*
For each of the compounds below, state its CLint Human.
Numbers only, in mL/min/g tissue.

Solved cases (2 shown):
CC[C@H](C)[C@@H]1NC(=O)[C@@H](CC(C)C)NC(=O)[C@H](CC(C)C)NC(=O)[C@H](Cc2c[nH]c3ccccc23)NC(=O)[C@@H](CCCN)NC(=O)[C@H](COC(C)(C)C)NC1=O [Compound 11c] (cyclo(IS(tBu)[dOrn]WL[dL])) ... 3.33
CC(C)C[C@@H]1NC(=O)[C@H](Cc2c[nH]c3ccccc23)NC(=O)[C@@H](CCCN)NC(=O)[C@H](CC(N)=O)NC(=O)[C@H](C(C)C)NC(=O)[C@@H](Cc2ccc(Cl)cc2)NC1=O [Compound 16c] (cyclo(L[dPhe(4-Cl)]VN[dOrn]W)) ... 2.43

Quick one: give me CLint Human for each item below, same order please.
1. CC[C@H](C)[C@@H]1NC(=O)[C@@H](CC(C)C)NC(=O)[C@H](CC(C)C)NC(=O)[C@H](Cc2c[nH]c3ccccc23)NC(=O)[C@@H](CCCN)NC(=O)[C@H](CO)NC1=O [Compound 10c] (cyclo(IS[dOrn]WL[dL]))
2. CC(C)C[C@@H]1NC(=O)[C@H](Cc2c[nH]c3ccccc23)NC(=O)[C@@H](CCCN)NC(=O)[C@H](CC(N)=O)NC(=O)[C@H](C(C)C)NC(=O)[C@@H](C)NC1=O [Compound 6c] (cyclo(L[dA]VN[dOrn]W))

A.
9.77
0.73

Q. Fill in: CLint Human of CC(C)C[C@H]1NC(=O)[C@H](CC(C)C)N(C)C(=O)[C@H](Cc2c[nH]c3ccccc23)NC(=O)[C@@H](CCCN)NC(=O)[C@H](CC(N)=O)NC(=O)[C@H](C(C)C)N(C)C1=O [Compound 24c] (cyclo(N[dOrn]W[NMeL][dL][NMeV])) is ___
A. 3.51
